- studyTarget: MbtI (Mycobacterium tuberculosis, UniProt P9WFX1)
- Construct: made in house
- Sequence (P9WFX1 whole entry): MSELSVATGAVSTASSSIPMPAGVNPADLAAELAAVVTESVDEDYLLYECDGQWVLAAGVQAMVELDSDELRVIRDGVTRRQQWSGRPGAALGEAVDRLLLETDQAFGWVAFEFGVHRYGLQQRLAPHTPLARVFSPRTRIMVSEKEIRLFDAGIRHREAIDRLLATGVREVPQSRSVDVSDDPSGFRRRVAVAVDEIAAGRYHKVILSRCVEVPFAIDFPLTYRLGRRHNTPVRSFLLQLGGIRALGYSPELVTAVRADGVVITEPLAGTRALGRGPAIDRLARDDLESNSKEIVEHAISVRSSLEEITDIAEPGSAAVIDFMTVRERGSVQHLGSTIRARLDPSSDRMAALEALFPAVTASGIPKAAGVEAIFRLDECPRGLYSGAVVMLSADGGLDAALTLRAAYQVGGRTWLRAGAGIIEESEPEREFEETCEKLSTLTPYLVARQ
- measurementDescription: MbtI fluorimetric enzyme inhibition assay
- Format: biochemical
- experimentalContext: recombinant MbtI
propertyName: pIC50
Conceptually, pIC50 converts a concentration in mol/L into minus its log10.

The cases that follow already have their pIC50 on record.
compound	studyTarget	propertyName	reportedMeasurement
CCCCCCOc1cc(C#N)cc(-c2ccc(C(=O)O)o2)c1 [Compound 1k]	MbtI (Mycobacterium tuberculosis, UniProt P9WFX1)	pIC50	5.00
C/C=C/C=C/C=C/COc1cc(C#N)cc(-c2ccc(C(=O)O)o2)c1 [Compound 1o]	MbtI (Mycobacterium tuberculosis, UniProt P9WFX1)	pIC50	5.04
CC(C)CCOc1cc(C#N)cc(-c2ccc(C(=O)O)o2)c1 [Compound 1j]	MbtI (Mycobacterium tuberculosis, UniProt P9WFX1)	pIC50	4.66

Look up and report pIC50, with MbtI (Mycobacterium tuberculosis, UniProt P9WFX1) as system, for CC(C)Oc1cc(C#N)cc(-c2ccc(C(=O)O)o2)c1 [Compound 1b]
4.68
